Test: Half life in mouse brain at 10 ul
Format: ADME, organism-based

compound	half-life
NC(=O)[C@H](Cc1ccccc1)NC(=O)[C@H](Cc1ccccc1)NC(=O)[C@@H]1CCCN1C(=O)[C@@H](N)Cc1ccc(O)cc1 [ENDOMORPHIN 2]	19.7 min
NC(=O)[C@@H](NC(=O)[C@H](Cc1ccccc1)NC(=O)[C@@H]1CCCN1C(=O)[C@@H](N)Cc1ccc(O)cc1)c1ccccc1	24.1 min
NC(=O)[C@H](Cc1ccccc1)NC(=O)[C@H](CCc1ccccc1)NC(=O)[C@@H]1CCCN1C(=O)[C@@H](N)Cc1ccc(O)cc1	32.5 min

###

Target: Mu-type opioid receptor (Rattus norvegicus, UniProt P33535)
Sequence (P33535 whole entry): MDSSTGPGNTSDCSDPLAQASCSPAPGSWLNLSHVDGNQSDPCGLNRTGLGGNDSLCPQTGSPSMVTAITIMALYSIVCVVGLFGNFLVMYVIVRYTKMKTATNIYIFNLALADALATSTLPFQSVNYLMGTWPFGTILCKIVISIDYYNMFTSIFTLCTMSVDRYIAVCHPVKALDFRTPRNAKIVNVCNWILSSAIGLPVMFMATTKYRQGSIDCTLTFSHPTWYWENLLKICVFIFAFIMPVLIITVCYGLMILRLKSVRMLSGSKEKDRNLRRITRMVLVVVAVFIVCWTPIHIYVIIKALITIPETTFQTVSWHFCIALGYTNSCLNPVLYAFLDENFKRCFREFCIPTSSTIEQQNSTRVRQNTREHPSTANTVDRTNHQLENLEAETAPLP
pKi: −log10 of the molar value. Where a SMILES comes first, the peptide text is derived from it. [ ]: non-standard residue; d: D form. hPhe = N[C@@H](CCc1ccccc1)C(=O)O
measurementKind: pKi

compound	measured
NC(=O)[C@H](Cc1ccccc1)NC(=O)[C@H](NC(=O)[C@@H]1CCCN1C(=O)[C@@H](N)Cc1ccc(O)cc1)c1ccccc1	5.87
NC(=O)[C@H](CCc1ccccc1)NC(=O)[C@H](Cc1ccccc1)NC(=O)[C@@H]1CCCN1C(=O)[C@@H](N)Cc1ccc(O)cc1	7.13
NC(=O)[C@H](NC(=O)[C@H](Cc1ccccc1)NC(=O)[C@@H]1CCCN1C(=O)[C@@H](N)Cc1ccc(O)cc1)c1ccccc1	6.67
NC(=O)[C@@H]1CCCN1C(=O)[C@H](CCc1ccccc1)NC(=O)[C@@H]1CCCN1C(=O)[C@@H](N)Cc1ccc(O)cc1 (H-YP[hPhe]P-NH2)	6.23
NC(=O)[C@@H]1CCCN1C(=O)[C@H](Cc1ccccc1)NC(=O)[C@@H]1CCCN1C(=O)[C@@H](N)Cc1ccc(O)cc1 [MORPHICEPTIN] (H-YPFP-NH2)	6.87
NC(=O)[C@H](Cc1ccccc1)NC(=O)[C@@H](NC(=O)[C@@H]1CCCN1C(=O)[C@@H](N)Cc1ccc(O)cc1)c1ccccc1	6.57
NC(=O)[C@@H](NC(=O)[C@H](Cc1ccccc1)NC(=O)[C@@H]1CCCN1C(=O)[C@@H](N)Cc1ccc(O)cc1)c1ccccc1	7.57
NC(=O)[C@H](Cc1ccccc1)NC(=O)[C@H](CCc1ccccc1)NC(=O)[C@@H]1CCCN1C(=O)[C@@H](N)Cc1ccc(O)cc1	7.55
